target: DUSP5 PD(WT) (Homo sapiens, UniProt Q16690); construct: hexa-histidine (N); made in house; host or cells: E. coli BL21(DE3); experiment: p-nitrophenol phosphate (pNPP) phosphatase activity / IC50 assay; format: biochemical; conditions: 1 mL cuvettes, pNPP substrate
ASSAY METRIC: IC50 (nM)
Numeric only. Scale: nM

input: Give IC50 only, for [Na+].[Na+].[Na+].[O]=[V]([O-])([O-])[O-] [sodium orthovanadate] , using DUSP5 PD(WT) (Homo sapiens, UniProt Q16690) data.
output: 88

----------
Target: full length DUSP5 (Homo sapiens, UniProt Q16690)
Construct: in the more biologically relevant assay with full length DUSP5 and using pERK2 as substrate; made in house
Sequence (Q16690 1-384): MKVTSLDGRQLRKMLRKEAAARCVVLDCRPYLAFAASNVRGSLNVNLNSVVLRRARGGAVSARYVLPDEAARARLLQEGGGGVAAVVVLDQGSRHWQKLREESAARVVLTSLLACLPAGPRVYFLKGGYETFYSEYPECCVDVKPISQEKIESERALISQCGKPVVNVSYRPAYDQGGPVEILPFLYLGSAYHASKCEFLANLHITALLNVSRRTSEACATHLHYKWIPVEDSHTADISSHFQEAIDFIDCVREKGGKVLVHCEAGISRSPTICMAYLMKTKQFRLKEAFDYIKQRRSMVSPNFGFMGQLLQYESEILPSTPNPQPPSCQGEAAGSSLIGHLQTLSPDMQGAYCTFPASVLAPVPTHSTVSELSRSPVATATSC
Assay: ERK dephosphorylation assay (full-length DUSP5, pERK2 substrate, Western blot)
Format: biochemical
Conditions: full length DUSP5, pERK2 as substrate; read-out: IC50 (mean)
ASSAY METRIC: pIC50
In textbook form, pIC50 equals minus log to base ten of the concentration in mol/L.

input: Tell me measured pIC50 for O=S(=O)(O)c1cc(O)c2c(S(=O)(=O)O)cccc2c1 please.
output: 4.48

----------
target: full length DUSP5 (Homo sapiens); construct: in the more biologically relevant assay with full length DUSP5 and using pERK2 as substrate; made in house; assay: ERK dephosphorylation assay (full-length DUSP5, pERK2 substrate, Western blot); format: biochemical; conditions: full length DUSP5, pERK2 as substrate; read-out: IC50 (range)
pIC50: −log10 of the molar value.
ASSAY METRIC: pIC50

input: Quickly give me recorded pIC50 for O=S(=O)(O)c1cc(O)c2c(S(=O)(=O)O)cccc2c1 [CSD^3_2320]
output: 4.02 to 5.10

----------
Target: DUSP5 PD(WT) (Homo sapiens)
Construct: hexa-histidine (N); made in house; host or cells: E. coli BL21(DE3)
Sequence (Q16690 178-319 limits assumed): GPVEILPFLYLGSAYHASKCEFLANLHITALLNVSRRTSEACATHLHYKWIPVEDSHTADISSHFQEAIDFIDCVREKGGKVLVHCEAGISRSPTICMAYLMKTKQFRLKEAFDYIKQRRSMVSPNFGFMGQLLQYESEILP
Assay: p-nitrophenol phosphate (pNPP) phosphatase activity / IC50 assay
Format: biochemical
Conditions: pNPP substrate, 96-well plate, Triton X-100 at 0.1 %; read-out: IC50 from enzyme assay
ASSAY METRIC: IC50 (mM)
State just the number; it will be interpreted in mM.

input: Give IC50 for O=S(=O)([O-])c1cc(S(=O)(=O)[O-])c2[nH]c3c(S(=O)(=O)[O-])cc(S(=O)(=O)[O-])cc3c2c1.[Na+].[Na+].[Na+].[Na+] [RR506]
output: 16
